target: full-length beta-Catenin (Uniprot ID P35222) (Homo sapiens, UniProt P35222); construct: 10 nM full-length beta-Catenin (Uniprot ID P35222); assay: Fluorescence polarization IC50 (beta-catenin / 5FAM-TCF4 10-53 competition); assay type: binding; conditions: fluorescence polarization; read-out: beta-Catenin FP IC50
Sequence (P35222 whole entry): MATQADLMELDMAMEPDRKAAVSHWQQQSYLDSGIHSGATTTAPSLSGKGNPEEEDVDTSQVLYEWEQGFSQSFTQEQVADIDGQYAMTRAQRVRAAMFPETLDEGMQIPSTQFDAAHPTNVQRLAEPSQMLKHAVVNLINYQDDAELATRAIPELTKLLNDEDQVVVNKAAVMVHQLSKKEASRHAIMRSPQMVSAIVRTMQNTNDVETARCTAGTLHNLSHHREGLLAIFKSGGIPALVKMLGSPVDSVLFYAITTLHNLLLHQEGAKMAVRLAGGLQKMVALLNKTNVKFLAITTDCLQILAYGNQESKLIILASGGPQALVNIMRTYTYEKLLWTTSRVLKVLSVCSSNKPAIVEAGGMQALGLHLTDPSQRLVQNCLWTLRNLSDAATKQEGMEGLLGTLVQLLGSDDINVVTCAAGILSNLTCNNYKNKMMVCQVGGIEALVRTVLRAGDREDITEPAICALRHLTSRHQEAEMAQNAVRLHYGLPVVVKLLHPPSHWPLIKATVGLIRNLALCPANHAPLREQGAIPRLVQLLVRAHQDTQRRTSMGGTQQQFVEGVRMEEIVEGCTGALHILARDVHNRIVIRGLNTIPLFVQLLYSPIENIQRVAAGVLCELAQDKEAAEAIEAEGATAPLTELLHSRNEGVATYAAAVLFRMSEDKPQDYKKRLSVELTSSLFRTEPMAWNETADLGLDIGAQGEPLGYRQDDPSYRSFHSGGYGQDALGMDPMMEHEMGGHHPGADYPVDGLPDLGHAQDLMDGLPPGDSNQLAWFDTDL
Collected pIC50 values appear next to each entry.
# reply with the number alone; pIC50 is -log10 of concentration in mol/L

• CC(=O)N1CCC[C@]12CC=CCCCC1(CCCC=CCCCCCC[C@@](C)(C(=O)N[C@@H](Cc3ccsc3)C(=O)N[C@@H](Cc3csc4ccccc34)C(=O)N[C@@H](CCC(N)=O)C(N)=O)NC(=O)[C@H](CC(N)=O)NC(=O)[C@H](Cc3ccccc3)NC(=O)[C@H](C)NC(=O)[C@H](C)NC(=O)[C@H](CCC(=O)O)NC(=O)[C@H](CC(=O)O)NC1=O)NC(=O)[C@H](CC(C)(C)C)NC(=O)[C@H](CC(=O)O)NC2=O (stereo partly drawn) [I-683] = 7.72

GET /value?item= CC(=O)N1CCC[C@]12CC=CCCCC1(CCCC=CCCCOC(=O)N3CC[C@@](C(=O)N[C@@H](Cc4ccsc4)C(=O)N[C@@H](Cc4csc5ccccc45)C(=O)N[C@@H](Cc4c[nH]nn4)C(N)=O)(C3)NC(=O)[C@H](CC(C)C)NC(=O)[C@H](Cc3ccccc3)NC(=O)[C@H](C)NC(=O)[C@H](C)NC(=O)[C@H](CC(=O)O)NC(=O)[C@H](CC(=O)O)NC1=O)NC(=O)[C@H](CC(C)(C)C)NC(=O)[C@H](CC(=O)O)NC2=O (stereo partly drawn) [I-1498] &field=pIC50 returns 7.32

GET /value?item= CC(=O)N1CCC[C@]12CCCCCCC1(CCCCCCCCOC(=O)N3CC[C@@](C(=O)N[C@@H](Cc4ccsc4)C(=O)N[C@@H](Cc4csc5ccccc45)C(=O)N[C@@H](CCC(N)=O)C(N)=O)(C3)NC(=O)[C@H](CC(C)C)NC(=O)[C@H](Cc3ccccc3)NC(=O)[C@H](C)NC(=O)[C@H](C)NC(=O)[C@H](CN(CC(=O)O)CC(F)(F)F)NC(=O)[C@H](CC(=O)O)NC1=O)NC(=O)[C@H](CC(C)(C)C)NC(=O)[C@H](CC(=O)O)NC2=O (stereo partly drawn) [I-1605] &field=pIC50 returns 6.67
